src = PubChem BioAssay (NCI)

Listed next: entries and their corresponding growth.
System: COLO 205 colon
procedure_text: NCI-60 one-dose screen, 48 h (100 = growth as untreated, 0 = no growth, -100 = all killed)
study_conditions: 10 µM
Procedure: Cells are grown in 96 well plates and exposed to the test compound for 48 hours. Compounds are tested at a single concentration, which is 10^-5 M for most compounds. The reported endpoint is percent growth (GI% or GIPRCNT), where numbers from 0 - 100% represent growth inhibition, and numbers from -100% - 0 represent cell death. For example, a value of 40 represents 60% growth inhibition. A value of 0 means no net growth occurred over the course of the experiment. […]
The panel holds about 83,000 compounds, 20% with a hit somewhere; the sample as a whole holds those more often.

compound	growth, %
C/C1=C\[C@H](C)C[C@H](C)OC(=O)C[C@H](c2ccc(O)cc2)NC(=O)[C@@H](Cc2c(Br)[nH]c3ccccc23)N(C)C(=O)[C@H](C)NC(=O)[C@@H](C)C1	9.93
CN(CCCl)c1ccc(/C=C/C2=[N+](C)c3ccccc3C2(C)C)cc1	-7.09
CC12OOC(c3ccccc31)c1c2ccc2ccccc12 (stereo not given)	-65.4
COc1cc(/C=C/[N+](=O)[O-])cc(Br)c1OC	17.5
O=[N+]([O-])c1ccc(N(CCO)CCO)c2c1no[n+]2[O-]	-93.3
CC(=O)Nc1c2sscc-2n(C)c1=O	-87.1
O=[N+]([O-])c1ccc(N2CCOCC2)c2c1no[n+]2[O-]	-53.1
CC(C)(C)OOC(=O)/C=C\C(=O)OOC(C)(C)C	110
C[C@]12CC[C@H]3[C@@H](CCC4=CC(=O)CC[C@@H]43)[C@@H]1CC[C@@H]2OC(=O)N(CCCl)N=O	58.8
Cc1cc(C)c(C[N+](C)(C)C)c(C)c1C	0.186

* * *

Test system: EKVX NSCLC
procedure_text: NCI-60 one-dose screen, 48 h (100 = growth as untreated, 0 = no growth, -100 = all killed)
study_conditions: 10 µM
The panel holds about 83,000 compounds, 20% with a hit somewhere; the sample as a whole holds those more often.

query_smiles	growth / %
NC(=O)c1cc([N+](=O)[O-])c(Cl)c([N+](=O)[O-])c1	98.3
CC/C(=C/c1ccc(OC)cc1)[N+](=O)[O-]	78
O=[P+](O)c1ccccc1	115
NC(=O)c1cc([N+](=O)[O-])c(Cl)c([N+](=O)[O-])c1Cl	35.8
C[CH2][Hg][S]c1ccccc1C(=O)O	63.6

* * *

Tested on: UACC-257 melanoma
procedure_text: NCI-60 one-dose screen, 48 h
study_conditions: 10 µM
Compounds without any hit were thinned out: in the full panel of roughly 83,000, 20% have a hit. Calls of active or inactive are those of the source. Rule for the calls: active = growth percent below 10; inactive = the rest.
Outcome codes: active, inactive

molecule	assigned_label
COc1cc([C@@H]2c3cc4c(c(O)c3C[C@H]3COC(=O)[C@@H]32)OCO4)cc(OC)c1OC	inactive
COC12c3c(C)cc(O)c4c(=O)occ(c34)C(=O)C1C13COC(=O)c4c(O)cc(C)c(c41)C(=O)C2C3OC(C)=O (configuration not stated)	inactive
COS(=O)(=O)c1ccccc1	inactive
Oc1c(I)cc(I)cc1I	inactive
O=[N+]([O-])/C=C\c1ccc2c(c1)OCO2	inactive
COc1cc([N+](=O)[O-])c2ncccc2c1[N+](=O)[O-]	inactive
O=[N+]([O-])c1ccc(N(CCO)CCO)c2c1no[n+]2[O-]	inactive
CC12OOC(c3ccccc31)c1c2ccc2ccccc12 (configuration not stated)	active
[O-][n+]1ccccc1S	inactive
O=C(CBr)Nc1ccc(Cl)cc1	inactive
CN(CCCl)c1ccc(/C=C/C2=[N+](C)c3ccccc3C2(C)C)cc1	inactive
CC(C)c1cc([N+](=O)[O-])cc([N+](=O)[O-])c1O	inactive

* * *

Test system: HS 578T breast
procedure_text: NCI-60 one-dose screen, 48 h (100 = growth as untreated, 0 = no growth, -100 = all killed)
study_conditions: 10 µM
About 83,000 compounds went through this panel and 20% of them were active in at least one assay; those are over-represented in the sample as a whole.

compound	growth, %
COc1cc(/C=C/[N+](=O)[O-])cc(OC)c1OC	8.36
COC12C(COC(N)=O)C3=C(C(=O)C(C)=C(N)C3=O)N1CC1C2N1C (stereo not given)	67.1
O=[N+]([O-])c1cc[n+]([O-])c2ccccc12	18.7
ClCc1ccc2ccccc2n1	97.4
COC12c3c(C)cc(O)c4c(=O)occ(c34)C(=O)C1C13COC(=O)c4c(O)cc(C)c(c41)C(=O)C2C3OC(C)=O (stereo not given)	112
COC1CC2C=C(C)/C=C/C=C/C(=O)NC(c3ccccc3)C/C=C/CCC(O)CC(=O)C2=C1O (stereo not given)	-51.4
C[C@]12CC[C@H]3[C@@H](CCC4=CC(=O)CC[C@@H]43)[C@@H]1CC[C@@H]2OC(=O)N(CCCl)N=O	69.7
CCOP(=O)(OCC)/C(C#N)=C/c1ccc(Br)cc1	100
C[CH2][Hg][S]c1ccccc1C(=O)O	-1.53
Cc1cc(C)c(C[N+](C)(C)C)c(C)c1C	0.977
COS(=O)(=O)c1ccccc1	110
O=C(CBr)Nc1ccccc1	99.9
O=[P+](O)c1ccccc1	106
[Cl][Hg][c]1ccc2ccccc2c1	2.36
CN(CCCl)c1ccc(/C=C/C2=[N+](C)c3ccccc3C2(C)C)cc1	60.1
CC/C(=C/c1ccc(OC)cc1)[N+](=O)[O-]	90.2
Oc1c(Cl)cc(Cl)c2ccccc12.[Cu+2]	88.9
[O-][n+]1ccccc1S	64
COc1ccc2c(ccc3oc([N+](=O)[O-])cc32)c1	-7.73
C[C@@H]1C[C@@H]([C@H](O)CC2CC(=O)NC(=O)C2)C(=O)[C@@H](C)C1	7.45
C=NCC#N	124
CC(C)C1(NC(=O)C2CC3c4cccc5[nH]cc(c45)CC3N(C)C2)OC2(O)C3CCCN3C(=O)C(Cc3ccccc3)N2C1=O (stereo not given)	99.5
CC12OOC(c3ccccc31)c1c2ccc2ccccc12 (stereo not given)	91.6
N#CCc1ccccc1	106
CCOP(=O)(OCC)C(O)c1ccccc1Cl (stereo not given)	106

* * *

Tested on: NCI-H460 lung
procedure_text: NCI-60 one-dose screen, 48 h
study_conditions: 10 µM
About 83,000 compounds went through this panel and 20% of them were active in at least one assay; those are over-represented in the sample as a whole. Calls of active or inactive are those of the source. How the source made its calls: active means growth percent below 10; inactive means the rest.
Outcome codes: 1 (yes) (active), 0 (no) (inactive)

query_smiles	assigned_label
CC(C)(C)OOC(=O)/C=C\C(=O)OOC(C)(C)C	0 (no)
C[C@]12CC[C@H]3[C@@H](CCC4=CC(=O)CC[C@@H]43)[C@@H]1CC[C@@H]2OC(=O)N(CCCl)N=O	1 (yes)
COc1ccc2c(ccc3oc([N+](=O)[O-])cc32)c1	1 (yes)
O=[N+]([O-])c1ccc(N2CCOCC2)c2c1no[n+]2[O-]	1 (yes)
O=[N+]([O-])c1ccc(N(CCO)CCO)c2c1no[n+]2[O-]	1 (yes)

* * *

System: NCI/ADR-RES ovarian
procedure_text: NCI-60 one-dose screen, 48 h
study_conditions: 10 µM
This is part of a sample that, as a whole, favours compounds with a hit. Of some 83,000 tested, about 20% had one in any assay. Calls of active or inactive are those of the source. Rule for the calls: active = growth percent below 10; inactive = the rest.
Outcome codes: active, inactive

molecule	assigned_label
CC[C@@]1(O)C[C@H](OC2CC(N(C)C)C(O)C(C)O2)c2c(cc3c(c2O)C(=O)c2c(O)ccc(O)c2C3=O)[C@H]1C(=O)OC (stereo partly specified)	active
COC12c3c(C)cc(O)c4c(=O)occ(c34)C(=O)C1C13COC(=O)c4c(O)cc(C)c(c41)C(=O)C2C3OC(C)=O (stereo unspecified)	inactive
CN(CCCl)c1ccc(/C=C/C2=[N+](C)c3ccccc3C2(C)C)cc1	inactive
CCOP(=O)(OCC)/C(C#N)=C/c1ccc(Br)cc1	inactive
[Cl][Hg][c]1ccc(Cl)s1	inactive
COc1cc(/C=C/[N+](=O)[O-])cc(OC)c1OC	inactive
O=[N+]([O-])/C=C\c1ccc2c(c1)OCO2	inactive
CC(C)c1cc([N+](=O)[O-])cc([N+](=O)[O-])c1O	inactive
COC12C(COC(N)=O)C3=C(C(=O)C(C)=C(N)C3=O)N1CC1C2N1C (stereo unspecified)	inactive
O=C1C(=O)c2ccccc2-c2ccccc21	active
CC/C(=C/c1ccc(OC)cc1OC)[N+](=O)[O-]	inactive

* * *

System: ACHN renal
procedure_text: NCI-60 one-dose screen, 48 h (100 = growth as untreated, 0 = no growth, -100 = all killed)
study_conditions: 10 µM
About 83,000 compounds went through this panel and 20% of them were active in at least one assay; those are over-represented in the sample as a whole.
measured_property: growth (%)

compound	readout_unit	numeric_readout
CC12OOC(c3ccccc31)c1c2ccc2ccccc12 (configuration not stated)	%	-100
N#CCc1ccccc1	%	108
CS(=N)(=O)CCC(N)C(=O)O (configuration not stated)	%	103
O=C1CCC(=O)N1SC(Cl)(Cl)Cl	%	110
C#CC1(O)CCC(C(C)(C)C)CC1 (configuration not stated)	%	104
Cc1cc(C)c(C[N+](C)(C)C)c(C)c1C	%	6.7
O=[N+]([O-])/C=C/c1ccc(Cl)cc1[N+](=O)[O-]	%	30.3
